- MEASURED TARGET: Luciferin 4-monooxygenase (Photinus pyralis)
- RUN DESCRIPTION: firefly luciferase enzyme inhibitors, primary screen, biochemical, luminescence, purified enzyme, 2006 set (AID 1141);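 note: cell-free assay with purified firefly luciferase at 100 ng per well in PBS; test concentration not given here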
- CONDITIONS: SteadyGlo luminescence, 30 min, higher = more signal, called active from +8 up or from −8 down
I'd appreciate it if you could supply z-score values for the items below.
Please respond with just the number, no unit label.

The reported value for COCCOC(=O)N1C(=O)[C@@]2(c3cc(C#CCC(C(=O)OC)C(=O)OC)ccc31)[C@H](C(=O)N1CCc3cc(OC)c(OC)cc3C1)[C@H]1C(=O)O[C@H](c3ccccc3)[C@H](c3ccccc3)N1[C@@H]2c1ccccc1OCCO in terms of z-score is 0.888

The reported value for COC(=O)C(CC#Cc1ccc2c(c1)[C@]1(C(=O)N2)[C@H](C(=O)NC[C@H](O)c2ccccc2)[C@H]2C(=O)O[C@H](c3ccccc3)[C@H](c3ccccc3)N2[C@@H]1c1ccc(O)cc1)C(=O)OC in terms of z-score is -0.168

The reported value for CN1C(=O)C2CC=C(C3=CCO[C@@H]3[C@H]3CCCN3S(=O)(=O)c3ccccc3[N+](=O)[O-])CC2C1=O (stereo partly specified) in terms of z-score is 0.294

The reported value for C=CCNC(=O)[C@@H]1[C@H]2C(=O)O[C@H](c3ccccc3)[C@H](c3ccccc3)N2[C@H](c2ccc(OCCO)cc2)[C@@]12C(=O)N(C(=O)OCCOC)c1ccccc12 in terms of z-score is 0.36

The reported value for CC(C)c1ccc(NN2C(C(O)C(C)c3ccccc3)C=CC3C(=O)N(c4ccccc4)C(=O)C32)cc1 (stereo unspecified) in terms of z-score is 0.222

The reported value for COCCCNC(=O)[C@@]1(Cc2ccccc2I)c2ccccc2C(=O)N(Cc2ccccc2C(F)(F)F)[C@H]1c1ccc(CO)cc1 in terms of z-score is 0.636

The reported value for CCCCC(=C=CC[C@@H](O)c1ccccc1OCCO)C[C@@H](O)c1ccccn1 in terms of z-score is -0.96

The reported value for COC(=O)[C@@]1(Cc2ccc(F)cc2)[C@H]2c3cc(C(=O)N(C)C)n(Cc4ccsc4Br)c3C[C@H]2CN1C(=O)c1ccccc1 in terms of z-score is 1.18

The reported value for COc1ccc(CCNC(=O)[C@@]2(c3ccc([N+](=O)[O-])cc3)CC(=O)N(C3CCCCC3)[C@@H]2c2ccc(CO)cc2I)cc1 in terms of z-score is -1.28

The reported value for CC(=O)NCCCC[C@@H]1NC(=O)[C@H]2C[C@@H](C(=O)NCCCCCN)[C@@H](c3ccc(O)cc3)N2C1=O in terms of z-score is 0.148

The reported value for C=CCN1C(=O)[C@]2(O[C@H](CCO)[C@@H]([Si](C)(C)c3ccc(OC)cc3)[C@@H]2C)c2cc(N3C(=O)c4ccccc4Oc4ccccc43)ccc21 in terms of z-score is 0.368

The reported value for CCCCC(=C=CC[C@H](O)c1cccc(OCCO)c1)C[C@H](O)c1cc(Cl)cc(Cl)c1O in terms of z-score is -0.677

The reported value for COc1ccc(CCNC(=O)[C@@H]2c3ccccc3C(=O)N(C(C)C)[C@H]2c2ccc(CO)cc2)cc1 in terms of z-score is -0.897

The reported value for COCCOC(=O)N1C(=O)[C@@]2(c3cc(C#CCC(C(=O)OC)C(=O)OC)ccc31)[C@H](C(N)=O)[C@H]1C(=O)O[C@H](c3ccccc3)[C@H](c3ccccc3)N1[C@@H]2c1ccccc1OCCO in terms of z-score is -0.617

The reported value for COC(=O)[C@@]1(Cc2ccc(F)cc2)[C@H]2c3cc(C(=O)N4CCCC4)n(CCc4c[nH]c5cc(F)ccc45)c3C[C@H]2CN1C(=O)c1ccccc1 in terms of z-score is 2.41

The reported value for COC(=O)[C@]1(Cc2ccccc2CN=[N+]=[N-])N=C(c2ccc(OCCCO)cc2)O[C@@H]1c1ccccc1N=[N+]=[N-] in terms of z-score is -3.31

The reported value for C[C@H]1C2[C@H](Cc3ccccc3)NC(=O)[C@]23C(=O)N[C@@H](Cc2ccccc2)C(=O)N2CCC[C@H]2C(=O)NC/C=C/CC/C=C/C3[C@@H]2O[C@]12C (stereo partly specified) in terms of z-score is 0.527

The reported value for CCCCN1CC=CC23O[C@@H]4/C=C\CCC(C)OC(=O)C4[C@H]2C(=O)N(CCO)[C@@H]3C1=O (stereo partly specified) in terms of z-score is 1.1

The reported value for CO[C@H]1O[C@H](CO)[C@@H](OC(=O)Nc2cccc(F)c2)[C@H](OC(=O)Nc2ccc3c(c2)OCO3)[C@@H]1OC(=O)Nc1ccc2c(c1)OCO2 in terms of z-score is -4.46

The reported value for CC(C)[Si](C#Cc1ccccc1)(O[C@H](c1ccccc1)c1cn(Cc2ccccc2)nn1)C(C)C in terms of z-score is -1.3

The reported value for O=C1O[C@H](c2ccccc2)[C@H](c2ccccc2)N2[C@H]1[C@@H](C(=O)O)[C@]1(C(=O)Nc3ccccc31)[C@H]2c1ccc(OCCO)cc1 in terms of z-score is -1.01

The reported value for C=CCNC(=O)[C@H]1[C@@H]2C(=O)O[C@@H](c3ccccc3)[C@@H](c3ccccc3)N2[C@@H](c2ccc(OCCO)cc2)[C@]12C(=O)N(C(=O)OCCOC)c1ccc(C#CCNC(N)=O)cc12 in terms of z-score is -0.0331

The reported value for C=CCNC(=O)[C@@H]1[C@H]2C(=O)O[C@H](c3ccccc3)[C@H](c3ccccc3)N2[C@H](c2ccc(O)cc2)[C@@]12C(=O)Nc1ccc(C#CC3=CCCCC3)cc12 in terms of z-score is -0.806

The reported value for COc1ccc([Si](C)(C)[C@@H]2[C@@H](CC(=O)N3Cc4ccccc4C[C@H]3CO)O[C@]3(C(=O)N(Cc4ccc(I)cc4)c4ccccc43)[C@H]2C)cc1 in terms of z-score is 0.798

The reported value for C[C@]1(C(=O)NCC(F)(F)F)c2ccccc2C(=O)N(Cc2cc(C(F)(F)F)cc(C(F)(F)F)c2)[C@H]1c1ccc(CO)cc1 in terms of z-score is -1.17

The reported value for C=CCNC(=O)[C@@H]1[C@H]2C(=O)O[C@H](c3ccccc3)[C@H](c3ccccc3)N2[C@H](c2ccc(OCCO)cc2)[C@@]12C(=O)Nc1ccc(C#CC3=CCCCC3)cc12 in terms of z-score is -0.806
